Reference source for all entries: ChEMBL document CHEMBL1961873

# subject-of-test: Tyrosine-protein kinase JAK3 (Homo sapiens)
# details: at 0.1 µM;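 note: values reported are mean percent inhibition of JAK3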
Please go through the items and note down their inhibition.

Any idea what its inhibition is? The compound is `CCC(=O)Nc1ccc(C)c(-c2ccc(C(=O)NCC3CC3)cc2)c1`
-1.95%

Any idea what its inhibition is? The compound is `COc1cccc(-n2cnc3c(N/N=C/c4ccncc4)ncnc32)c1`
-2.48%

Any idea what its inhibition is? The compound is `CN1CCN(CCCNc2nc3ccc(Oc4ccc(NC(=O)Nc5cc(C(F)(F)F)ccc5F)cc4)cc3[nH]2)CC1`
-2.58%

Any idea what its inhibition is? The compound is `O=C1NC(=O)C(c2cccc(Cl)c2)=C1Nc1ccc(Cl)c(C(=O)O)c1`
-0.9%

Any idea what its inhibition is? The compound is `COC(=O)Nc1nc2ccc(Sc3ccc(NC(=O)Nc4cc(C(F)(F)F)ccc4F)cc3)cc2[nH]1`
-1.15%

Any idea what its inhibition is? The compound is `O=C(Nc1n[nH]c2cc(-c3ccccc3)ccc12)C1CC1`
-1.69%

Any idea what its inhibition is? The compound is `COc1cc(Nc2ncc3c(C)nc(-c4cccc(C(F)(F)F)c4)n3n2)cc(OC)c1OC`
-0.52%

Any idea what its inhibition is? The compound is `C/C(Nc1ccc(S(N)(=O)=O)cc1)=C1/C(=O)Nc2ccccc21`
-0.45%

Any idea what its inhibition is? The compound is `O=C(NCC1CC1)c1ccc(-c2cccc(C(=O)NC3CC3)c2)cc1`
-0.66%

Any idea what its inhibition is? The compound is `NS(=O)(=O)c1ccc(N/N=C2\C(=O)Nc3ccc(C(=O)NCCCn4ccnc4)cc32)cc1`
-2%

Any idea what its inhibition is? The compound is `COc1ccc(C2=C(N3CCc4ccccc43)C(=O)NC2=O)cc1`
-0.7%

Any idea what its inhibition is? The compound is `COc1cc2ncn(-c3cc(OCCc4ccccc4)c(C(N)=O)s3)c2cc1OC`
-0.27%

Any idea what its inhibition is? The compound is `c1ccc(Oc2ccc(Nc3ncc(-c4ccccc4)o3)cc2)cc1`
-0.5%

Any idea what its inhibition is? The compound is `C[C@@H](Oc1cc(-n2cnc3ccc(OC4CCN(C)CC4)cc32)sc1C(N)=O)c1ccccc1Cl`
-5.38%

Any idea what its inhibition is? The compound is `O=C(Nc1n[nH]c2nc(-c3ccco3)ccc12)C1CC1`
0.01%

Any idea what its inhibition is? The compound is `Fc1ccc(-c2ncn(C3CCNCC3)c2-c2ccnc(Oc3ccc(F)c(F)c3)n2)cc1`
-5.49%

Any idea what its inhibition is? The compound is `C#Cc1cccc(Nc2ncnc3ccc(OCCCCNCCS(C)(=O)=O)cc23)c1`
-4.71%

Any idea what its inhibition is? The compound is `CN(C)CCCNc1nccc(-c2c(-c3ccc(F)cc3)nn3cc(C(F)(F)F)ccc23)n1`
-2.83%

Any idea what its inhibition is? The compound is `N#Cc1ccc(Oc2nccc(-c3c(-c4ccc(F)cc4)ncn3C3CCNCC3)n2)cc1`
-3.92%

Any idea what its inhibition is? The compound is `NCc1ccc(-n2c(-c3nonc3N)nc3cnccc32)cc1`
-0.04%

Any idea what its inhibition is? The compound is `Fc1ccc(-c2ncn(CCCN3CCOCC3)c2-c2ccncc2)cc1`
0.1%
